measured on: UniProt P03372
Sequence (P03372 whole entry): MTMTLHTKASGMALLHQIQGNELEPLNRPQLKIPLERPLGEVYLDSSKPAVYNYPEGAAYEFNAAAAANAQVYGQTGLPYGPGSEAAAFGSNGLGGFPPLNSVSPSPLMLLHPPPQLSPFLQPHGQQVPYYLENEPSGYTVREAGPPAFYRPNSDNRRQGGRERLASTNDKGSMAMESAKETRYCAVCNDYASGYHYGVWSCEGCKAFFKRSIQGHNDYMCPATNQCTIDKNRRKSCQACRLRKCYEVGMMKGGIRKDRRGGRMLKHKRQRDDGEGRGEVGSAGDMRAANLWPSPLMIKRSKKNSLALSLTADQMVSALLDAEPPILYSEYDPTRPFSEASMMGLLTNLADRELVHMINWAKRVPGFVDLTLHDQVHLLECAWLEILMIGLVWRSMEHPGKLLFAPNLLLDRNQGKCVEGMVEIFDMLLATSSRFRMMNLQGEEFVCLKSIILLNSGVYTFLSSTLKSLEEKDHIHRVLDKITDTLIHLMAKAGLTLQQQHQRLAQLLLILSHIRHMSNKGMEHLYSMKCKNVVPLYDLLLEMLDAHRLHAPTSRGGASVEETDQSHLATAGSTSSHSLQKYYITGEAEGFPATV
experiment summary: ERα reporter (luciferase) transactivation assay in transfected HEK293 cells
Assay type: cell-based
Parameters: expressed in transfected cells; host or cells: HEK293
experimental setup: sample concentration 10 μM, 24 hours, mean of at least three independent transfections
metric: ERα receptor activation relative to 10 nM E2 corresponding 100 (%)
One number for each entry, in %.

Oc1ccc(CCCC2=NOC(Cc3ccccc3)C2)cc1O (single isomer, unassigned) [102a] ... 0.3
c1ccc(CCCC2=NOC(Cc3ccccc3)C2)cc1 (single isomer, unassigned) [114b] ... 28.1
Oc1cccc(CCC2=NOC(Cc3ccccc3)C2)c1 (single isomer, unassigned) [92a] ... 19.2
Oc1ccc(CC2=NOC(c3cccc(O)c3)C2)cc1 (single isomer, unassigned) [83a] ... 30.8
Oc1ccc(CC2CC(CCCc3ccc(O)c(O)c3)=NO2)cc1 (single isomer, unassigned) [103a] ... 1.7

Please go through the list and note ERα receptor activation relative to 10 nM E2 corresponding 100 for each molecule.
1. c1ccc(CC2=NOC(c3ccccc3)C2)cc1 (stereo not drawn) [112ab, 3-Benzyl-5-phenyl-4,5-dihydroisoxazole]
2. CC1(c2ccccc2)CC(CCCc2ccccc2)=NO1 (stereo not drawn) [115ab]
3. CC1(c2ccccc2)CC(CCc2ccccc2O)=NO1 (single isomer, unassigned) [85a]

[reply]
1: 19.6; 2: 69.5; 3: 11.8

Please go through the list and note ERα receptor activation relative to 10 nM E2 corresponding 100 for each molecule.
1. c1ccc(CCC2=NOC(Cc3cccc4ccccc34)C2)cc1 (single isomer, unassigned) [67b]
2. COc1ccc(CCCC2=NOC(c3ccccc3)C2)cc1 (single isomer, unassigned) [72a]
3. CC1(c2ccccc2)CC(CCc2ccc(O)cc2)=NO1 (single isomer, unassigned) [87a]
4. COc1ccc(C2=NOC(Cc3ccc(OC)c(OC)c3)C2)cc1 (stereo not drawn) [16ab]

[reply]
1. 17.2
2. 9.2
3. 39.7
4. −4.0

---

measured on: ERβ (Homo sapiens, UniProt Q92731)
Sequence (Q92731 whole entry): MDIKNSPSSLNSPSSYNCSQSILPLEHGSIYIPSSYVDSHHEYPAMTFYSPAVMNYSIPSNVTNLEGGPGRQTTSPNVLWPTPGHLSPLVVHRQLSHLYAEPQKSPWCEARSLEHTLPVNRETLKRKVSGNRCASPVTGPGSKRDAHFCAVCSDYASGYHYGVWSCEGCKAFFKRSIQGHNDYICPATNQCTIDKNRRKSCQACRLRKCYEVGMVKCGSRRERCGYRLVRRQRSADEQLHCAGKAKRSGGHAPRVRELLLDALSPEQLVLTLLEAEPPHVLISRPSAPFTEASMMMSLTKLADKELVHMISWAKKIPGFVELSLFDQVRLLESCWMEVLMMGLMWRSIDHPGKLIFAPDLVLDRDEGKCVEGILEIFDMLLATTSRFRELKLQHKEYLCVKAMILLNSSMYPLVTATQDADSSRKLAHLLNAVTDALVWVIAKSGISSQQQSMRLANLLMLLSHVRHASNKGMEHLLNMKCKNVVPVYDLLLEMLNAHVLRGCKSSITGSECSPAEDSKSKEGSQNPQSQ
experiment summary: ERβ reporter (luciferase) transactivation assay in transfected HEK293 cells
Format: cell-based
Parameters: expressed in transfected cells; host or cells: HEK293
experimental setup: sample concentration 10 μM, 24 hours, mean of at least three independent transfections
Could you please report measured ERβ receptor activation relative to 10 nM E2 corresponding 100 for the items listed next?
Hi, when you answer, please include the unit after the number. Thanks!

Illustrative cases are given below, each with its answer.
Oc1cccc(CCC2=NOC(CCc3ccccc3)C2)c1 (single isomer, unassigned) [105b] ... 3.6%
Oc1ccc(CC2CC(CCCc3ccccc3)=NO2)cc1 (single isomer, unassigned) [100a] ... 4.7%

[ask] Give ERβ receptor activation relative to 10 nM E2 corresponding 100 (ERβ (Homo sapiens, UniProt Q92731)) of the following compound: c1ccc(CCC2=NOC(Cc3ccc4ccccc4c3)C2)cc1 (single isomer, unassigned) [68b]
[reply] 3.8%
